Each recorded value in this set is attributed to patent US20240173432A1.

- Test system: CUG foci in primary DM1 patient myoblasts
- test.name: Single-cut screening: FISH staining of CUG RNA foci
- Format: cell-based, human
- stated.conditions: single sgRNA; primary DM1 patient myoblasts; vehicle
Hi, to clarify the labels: yes covers % of CUG foci free nuclei (Vehicle) from 10% upward, no covers anything below 10%.

Is reported % of CUG foci free nuclei (Vehicle) greater than or equal to 10% here: TGTGAACTGGCAGGCGGTGGGC (guide RNA; chemistry not fully specified) [SluU17] yes

Is reported % of CUG foci free nuclei (Vehicle) greater than or equal to 10% here: CTTTTGCCAAACCCGCTTTTTC (guide RNA; chemistry not fully specified) [SluD41] no

Is reported % of CUG foci free nuclei (Vehicle) greater than or equal to 10% here: ATAAATATCCAAACCGCCGAAG (guide RNA; chemistry not fully specified) [SluD63] no

Is reported % of CUG foci free nuclei (Vehicle) greater than or equal to 10% here: GATCACAGACCATTTCTTTCTT (guide RNA; chemistry not fully specified) [SluD01] yes

Is reported % of CUG foci free nuclei (Vehicle) greater than or equal to 10% here: GCGCGGCTTCTGTGCCGTGCCC (guide RNA; chemistry not fully specified) [SluU15] no

Is reported % of CUG foci free nuclei (Vehicle) greater than or equal to 10% here: GTGGATGGGCAAACTGCAGGCC (guide RNA; chemistry not fully specified) [SluD13] yes

Is reported % of CUG foci free nuclei (Vehicle) greater than or equal to 10% here: GTGCGTGGAGGATGGAACACGG (guide RNA; chemistry not fully specified) [SluD19] yes

Is reported % of CUG foci free nuclei (Vehicle) greater than or equal to 10% here: ctccctccccggccGCTAGGGG (guide RNA; as printed in the source, key not given here) [SluU45] yes

Is reported % of CUG foci free nuclei (Vehicle) greater than or equal to 10% here: cgcggacccggcccctccctcc (CGCGGACCCGGCCCCTCCCTCC; guide RNA; chemistry not fully specified) [SluU53] yes

Is reported % of CUG foci free nuclei (Vehicle) greater than or equal to 10% here: CCCCTCCTCACTTGCGCTGCTC (guide RNA; chemistry not fully specified) [SluD47] no

Is reported % of CUG foci free nuclei (Vehicle) greater than or equal to 10% here: GACGCCCTGCTCTGGGGAGCGT (guide RNA; chemistry not fully specified) [SluD33] yes

Is reported % of CUG foci free nuclei (Vehicle) greater than or equal to 10% here: GATGGAGGGCCTTTTATTCGCG (guide RNA; chemistry not fully specified) [SluD98] yes

Is reported % of CUG foci free nuclei (Vehicle) greater than or equal to 10% here: ATCCGGGCCCGCCCCCTAGCgg (guide RNA; as printed in the source, key not given here) [SluU35] yes

Is reported % of CUG foci free nuclei (Vehicle) greater than or equal to 10% here: GGGCGCGGGATCCCCGAAAAAG (guide RNA; chemistry not fully specified) [SluD43] no

Is reported % of CUG foci free nuclei (Vehicle) greater than or equal to 10% here: GCACTTTGCGAACCAACGATAG (guide RNA; chemistry not fully specified) [SluD28] yes

Is reported % of CUG foci free nuclei (Vehicle) greater than or equal to 10% here: GTCGGGGGTGGGGGTCCTAGGT (guide RNA; chemistry not fully specified) [SluD85] yes

Is reported % of CUG foci free nuclei (Vehicle) greater than or equal to 10% here: TTTGCACTTTGCGAACCAACGA (guide RNA; chemistry not fully specified) [SluD29] no

Is reported % of CUG foci free nuclei (Vehicle) greater than or equal to 10% here: CAGCGCAAGTGAGGAGGGGGGC (guide RNA; chemistry not fully specified) [SluD46] no

Is reported % of CUG foci free nuclei (Vehicle) greater than or equal to 10% here: TTCTTGTGCATGACGCCCTGCT (guide RNA; chemistry not fully specified) [SluD30] yes

Is reported % of CUG foci free nuclei (Vehicle) greater than or equal to 10% here: GTCCAGAGCTTTGGGCAGATGG (listed as DNA, chemistry not fully specified) [SluD100] yes

Is reported % of CUG foci free nuclei (Vehicle) greater than or equal to 10% here: GCCCCAGCCGGCTCCGCCCGCT (guide RNA; chemistry not fully specified) [SluD55] yes

Is reported % of CUG foci free nuclei (Vehicle) greater than or equal to 10% here: CCCCGGGCACTCAGTCTTCCAA (guide RNA; chemistry not fully specified) [SluU12] yes

Is reported % of CUG foci free nuclei (Vehicle) greater than or equal to 10% here: GGCCCGGATCACAGGACTGGAG (guide RNA; chemistry not fully specified) [SluU31] yes

Is reported % of CUG foci free nuclei (Vehicle) greater than or equal to 10% here: TCCGGGCCCGCCCCCTAGCggc (guide RNA; as printed in the source, key not given here) [SluU36] yes

Is reported % of CUG foci free nuclei (Vehicle) greater than or equal to 10% here: CCCTAGAACTGTCTTCGACTCC (guide RNA; chemistry not fully specified) [SluU03] yes

Is reported % of CUG foci free nuclei (Vehicle) greater than or equal to 10% here: AAAAGCAAATTTCCCGAGTAAG (guide RNA; chemistry not fully specified) [SluD38] no

Is reported % of CUG foci free nuclei (Vehicle) greater than or equal to 10% here: CGAGAGCAGCGCAAGTGAGGAG (guide RNA; chemistry not fully specified) [SluD49] yes

Is reported % of CUG foci free nuclei (Vehicle) greater than or equal to 10% here: CCCAACAACCCCAATCCACGTT (guide RNA; chemistry not fully specified) [SluD70] yes

Is reported % of CUG foci free nuclei (Vehicle) greater than or equal to 10% here: TCGCGCCAGACGCTCCCCAGAG (guide RNA; chemistry not fully specified) [SluD35] no

Is reported % of CUG foci free nuclei (Vehicle) greater than or equal to 10% here: cggggagggaggggccgggtcc (CGGGGAGGGAGGGGCCGGGTCC; guide RNA; chemistry not fully specified) [SluU52] yes
